biological target: Epidermal growth factor receptor (Homo sapiens); experiment: Inhibition of EGFR autophosphorylation in DiFi cells
pIC50: −log10 of the molar value.
Attribute Measured: pIC50

Test Smiles: Nc1ccc2c(c1)CNc1c(Nc3ccc(F)c(Cl)c3)ncnc1O2
Subject Of Test: Epidermal growth factor receptor (Homo sapiens)
pIC50: 5.04

1: Fc1ccc(Nc2ncnc3c2NCc2cc(Br)ccc2O3)cc1Cl
2: Fc1ccc(Nc2ncnc3c2NCc2cc(Cl)ccc2O3)cc1Cl
3: COc1ccc2c(c1)CNc1c(Nc3ccc(F)c(Cl)c3)ncnc1O2
4: COc1cc2c(cc1OC)Oc1ncnc(Nc3cccc(Br)c3)c1NC2
## Input Put the molecules in ascending order of pIC50. Order the labels as requested and give them as your answer.
## Output 1, 2, 3, 4

a: CS(=O)(=O)Nc1ccc2c(c1)CNc1c(Nc3cccc(Br)c3)ncnc1O2
b: Fc1ccc(Nc2ncnc3c2NCc2ccccc2O3)cc1Cl
## Input Which entry has a larger number for pIC50, a or b ? Please respond with the label that marks your chosen entry.
## Output b

* * *

Observed pIC50 values for Epidermal growth factor receptor (Homo sapiens) are listed in what follows.
pIC50: −log10 of the molar value.
Attribute Measured: pIC50

Observe how each entry below is paired with its result.
Test Smiles: O=C(O)c1ccc2c(c1)CNc1c(Nc3cccc(Br)c3)ncnc1O2
pIC50: 6.00

Test Smiles: O=C(O)c1ccc2c(c1)CNc1c(Nc3ccc(F)c(Cl)c3)ncnc1O2
pIC50: 5.36

Test Smiles: COc1ccc2c(c1)CNc1c(Nc3ccc(Cl)cc3)ncnc1O2
pIC50: 5.24

a: Brc1ccc2c(c1)CNc1c(Nc3ccccc3)ncnc1O2
b: COc1cc2c(cc1OC)Oc1ncnc(Nc3cccc(Br)c3)c1NC2
## Input Could you tell me which of these two has the smaller pIC50 figure? First: a Second: b Please respond with the label that marks your chosen entry.
## Output a

* * *

target: Epidermal growth factor receptor (Homo sapiens); experiment: Inhibition of EGFR autophosphorylation in DiFi cells
pIC50: −log10 of the molar value.
Attribute Measured: pIC50

Test Smiles: COc1ccc2c(c1)Oc1ncnc(Nc3ccc(F)c(Cl)c3)c1NC2
Attribute Measured: pIC50
Obs Value: 5.05

Test Smiles: COc1ccc2c(c1)CNc1c(Nc3cccc(-c4ccccc4)c3)ncnc1O2
Attribute Measured: pIC50
Obs Value: 5.01

Test Smiles: Brc1cccc(Nc2ncnc3c2NCc2cc(Br)ccc2O3)c1
Attribute Measured: pIC50
Obs Value: 5.14

Test Smiles: C=CC(=O)Nc1ccc2c(c1)CNc1c(Nc3cccc(Br)c3)ncnc1O2
Attribute Measured: pIC50
Obs Value: 5.27

Test Smiles: COc1ccc2c(c1)CNc1c(NCc3ccccc3)ncnc1O2
Attribute Measured: pIC50
Obs Value: 5.07

* * *

pIC50: −log10 of the molar value.
Observed pIC50 values for Epidermal growth factor receptor (Homo sapiens, UniProt P00533) are listed in what follows.
Attribute Measured: pIC50

Test Smiles: COc1ccc2c(c1)CNc1c(Nc3cccc(Br)c3)ncnc1O2
Subject Of Test: Epidermal growth factor receptor (Homo sapiens, UniProt P00533)
Sequence (P00533 whole entry): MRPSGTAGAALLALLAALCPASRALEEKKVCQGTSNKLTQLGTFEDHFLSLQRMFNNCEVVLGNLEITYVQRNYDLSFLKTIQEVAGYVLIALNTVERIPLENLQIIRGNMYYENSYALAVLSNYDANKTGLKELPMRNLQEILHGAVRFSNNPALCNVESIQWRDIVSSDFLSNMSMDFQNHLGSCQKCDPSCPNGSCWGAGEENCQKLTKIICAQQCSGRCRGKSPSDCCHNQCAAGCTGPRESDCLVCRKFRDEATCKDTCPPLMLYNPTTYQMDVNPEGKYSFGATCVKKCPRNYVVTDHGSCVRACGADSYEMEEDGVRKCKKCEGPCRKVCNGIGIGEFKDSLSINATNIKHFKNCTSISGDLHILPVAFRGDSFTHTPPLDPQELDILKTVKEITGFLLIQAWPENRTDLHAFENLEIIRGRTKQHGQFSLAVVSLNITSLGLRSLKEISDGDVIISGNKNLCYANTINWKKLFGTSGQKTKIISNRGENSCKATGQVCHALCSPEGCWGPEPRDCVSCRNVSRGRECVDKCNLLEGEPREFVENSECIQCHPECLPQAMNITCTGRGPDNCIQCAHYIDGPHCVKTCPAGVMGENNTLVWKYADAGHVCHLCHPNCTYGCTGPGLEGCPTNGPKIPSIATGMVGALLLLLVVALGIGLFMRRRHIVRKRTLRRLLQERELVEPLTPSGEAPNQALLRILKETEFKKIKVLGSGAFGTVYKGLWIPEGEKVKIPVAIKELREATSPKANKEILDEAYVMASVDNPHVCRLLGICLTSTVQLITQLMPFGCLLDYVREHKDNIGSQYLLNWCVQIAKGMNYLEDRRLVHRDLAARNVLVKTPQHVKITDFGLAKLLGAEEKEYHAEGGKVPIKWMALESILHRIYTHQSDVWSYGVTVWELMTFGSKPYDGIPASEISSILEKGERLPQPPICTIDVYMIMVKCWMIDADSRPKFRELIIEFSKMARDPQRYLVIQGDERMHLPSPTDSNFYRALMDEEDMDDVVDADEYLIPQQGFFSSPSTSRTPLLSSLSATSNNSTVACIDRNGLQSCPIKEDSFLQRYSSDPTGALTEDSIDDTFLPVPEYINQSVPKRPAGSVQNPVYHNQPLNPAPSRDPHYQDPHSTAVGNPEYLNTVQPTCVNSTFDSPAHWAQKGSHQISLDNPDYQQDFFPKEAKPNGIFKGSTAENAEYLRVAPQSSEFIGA
Attribute Measured: pIC50
Obs Value: 5.51

1: Fc1ccc2c(c1)CNc1c(NCc3ccccc3)ncnc1O2
2: Fc1ccc2c(c1)CNc1c(Nc3cccc(-c4ccccc4)c3)ncnc1O2
## Input Which entry has a larger number for pIC50, 1 or 2 ? Please respond with the label that marks your chosen entry.
## Output 2

P: Brc1cccc(Nc2ncnc3c2NCc2cc(Br)ccc2O3)c1
Q: CS(=O)(=O)Nc1ccc2c(c1)CNc1c(Nc3cccc(Br)c3)ncnc1O2
R: COc1ccc2c(c1)CNc1c(NCc3ccccc3)ncnc1O2
S: Fc1ccc2c(c1)CNc1c(Nc3ccccc3)ncnc1O2
## Input Parameters: sort_field (pIC50), sort_dir (desc). Order the labels as requested and give them as your answer.
## Output P, R, Q, S
(P: 6.00, R: 5.70, Q: 5.39, S: 5.15)

I: Clc1ccc2c(c1)CNc1c(Nc3cccc(Br)c3)ncnc1O2
II: C=CC(=O)Nc1ccc2c(c1)CNc1c(Nc3cccc(Br)c3)ncnc1O2
III: Nc1ccc2c(c1)CNc1c(Nc3cccc(Br)c3)ncnc1O2
## Input Put the compounds in ascending order of pIC50. Order the labels as requested and give them as your answer.
## Output II, I, III
(II: 5.24, I: 5.47, III: 5.77)

I: Fc1ccc2c(c1)CNc1c(Nc3cccc(Br)c3)ncnc1O2
II: COc1cc(OC)c2c(c1)Oc1ncnc(Nc3cccc(Br)c3)c1NC2
III: Nc1ccc2c(c1)CNc1c(Nc3ccc(F)c(Cl)c3)ncnc1O2
## Input Put the compounds in ascending order of pIC50. Order the labels as requested and give them as your answer.
## Output II, III, I
